biological target: F protein of human metapneumovirus strain JPS03-178 (type A2), on infectious virus (human metapneumovirus, strain JPS03-178 …); assay: cell-based or functional assay
measure: IC50, neutralizing activity (hMPV infection of LLC-MK2 cells; GraphPad Prism 6) (µg/mL)
# value in µg/mL; strip the unit string

Can you look up the measured IC50, neutralizing activity (hMPV infection of LLC-MK2 cells; GraphPad Prism 6) of EV046142 (antibody, human IgG1, lambda, V domains shown) VH: QVQLVQSGAEVKKPGSSVRVSCKASGGTFSTYGINWVRQARGQGLEWMGTVIPTFEKTYYAQGFQGRVTIAADGSKNTVYMELRRLTSEDSAIYFCTRFFTPYCSGGSCYLDLWGPGTLVTVSS VL: QSVLTQPPSVSGAPGQSVTISCAGSSSNIGAGYDVHWYQHLPGTAPRLLIYSNTNRPSGVPDRFSGSKSGASASLAITGLQAEDEADYYCQSYDSGVVFGGGTKLTVLR for me?
0.0614

Can you look up the measured IC50, neutralizing activity (hMPV infection of LLC-MK2 cells; GraphPad Prism 6) of EV046147 (antibody, human IgG1, lambda, V domains shown) VH: QVQLVQSGAEVKKPGASVKVSCKASGYTFSVYGISWVRQAPGHGLEWMGWISAYNGDRGYAQKVQGRITMTTDTSASTAYMELRSLTSDDTAVYYCATTSSGVPGIYWGQGSLVTVSS VL: SYALVQPPSVSVSPGQTARITCFGPALPKKYAYWYQHKSGQAPMLVIYEDTKRPSGIPQRFSGSTSGATATLTIRGAQVEDEADYYCYSTDSSGHERVFGGGTKLTVLG for me?
1.98

Can you look up the measured IC50, neutralizing activity (hMPV infection of LLC-MK2 cells; GraphPad Prism 6) of EV046116 (antibody, human IgG1, kappa, V domains shown) VH: QVQLQESGPGLVKPSETLSLTCTVSGGSISRDYWSFIRQPAGKGLEWIGRIYHNGDTNYNPSLKSRVTMSQDTSKNQFFLRLRHVTAADTAVYYCAREGSAGTFGQADWGQGTLVIVYS VL: EIVMTQSPATLSVSPGERATLSCRASQSISNNLAWYQQKPGQAPRLLIYGASTRATGIPARFSGGGSGTEFTLTISSLQSEDFAVYYCQQYENWLLYTFGQGTKLEIKR for me?
0.19

Can you look up the measured IC50, neutralizing activity (hMPV infection of LLC-MK2 cells; GraphPad Prism 6) of EV046141 (antibody, human IgG1, lambda, V domains shown) VH: QVQLVQSGAEVKKPGASVKVSCKASGYTFADYYIHWLRQAPGQGLEWLGRINPSNSRTTYPQKFQGRVTVTRDTSTSTVYMELSSLRSADTAVYYCARDGLRMGYYYMDVWGKGTTVTVSS VL: QSVLTQPPSVSGAPGQRVTISCTGSSSNIGAGYDVHWYQQIPGTAPKLLIFGNYNRPSGVPDRFSASKSGTSASLAITGLQAEDEAHYYCQSYDTTLDGAVFGGGTKLTVLG for me?
2.11

Can you look up the measured IC50, neutralizing activity (hMPV infection of LLC-MK2 cells; GraphPad Prism 6) of EV046124 (antibody, human IgG1, lambda, V domains shown) VH: QVQLVQSGTELKKPGASVKVSCKASGYTFTDYSMHWLRQAPGESLEWMGWVNGGPLDTKYSPTFQDRVSFSRDVFATTAYMDLSSLGPEDTAVYYCARGWGITAYRGDAFDLWGQGTMVIVSS VL: SFVLTQPPSVSVAPGKSARITCGASNIESKSVHWYQQKPGQAPVVVVYDDDDRPSGIPERFSGSNSGNTATLIINRVEVGDEADYYCQVWDSTSDMYVFGAGTKVTVLG for me?
0.0407
